Recorded measurements of normalized growth, one per entry
- measurementProtocol: chemical genetic growth profiling, strain panel (AID 1159580);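 note: tested at 20 µM; growth read once vehicle control cultures reached saturation at 30 °C; 1 = growth at the plate median or of vehicle wells; lower values mean less growth of the strain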
- statedConditions: S. cerevisiae deletion strains, growth OD, locus YGR092W, strain DBF2, active compounds read low
About 2,000 (36%) of roughly 5,500 compounds were called active. About 18% were inconclusive and are not listed. This is one part of the list.
quantityMeasured: normalized growth

INSERT INTO results (smilesrecord, experimentalvalue) VALUES
  ('Cc1ccc(NS(=O)(=O)c2ccc(Cl)cc2)c(N=Cc2cc(Cl)cc(Cl)c2O)c1', 0.137),
  ('CC(=O)Nc1ccc(S(=O)(=O)Nc2ccccc2Oc2ccc(Cl)cc2Cl)cc1', 1),
  ('Cc1ccc(NC(=O)c2ccccc2N=Cc2cc(Cl)cc(Cl)c2O)c(N=Cc2cc(Cl)cc(Cl)c2O)c1', 0.123),
  ('Cc1c(-c2ccnn2C(=O)c2ccco2)cnn1-c1ccccc1', 0.917),
  ('CCc1ccn2cc(Nc3ccccc3Cl)nc2c1', 0.898);

* * *

- measurementProtocol: chemical genetic growth profiling, strain panel (AID 1159580);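 note: tested at 20 µM; growth read once vehicle control cultures reached saturation at 30 °C; 1 = growth at the plate median or of vehicle wells; lower values mean less growth of the strain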
- statedConditions: S. cerevisiae deletion strains, growth OD, locus YDL040C, strain nat1, active compounds read low
The whole screen tested about 5,500 compounds, of which about 2,000 (36%) were called active. Inconclusive results (about 18%) are left out. This is one part of the list.
Recorded measurements of normalized growth, one per entry
quantityMeasured: normalized growth

INSERT INTO assay_data (molecule, quantitymeasured, experimentalvalue) VALUES
  ('C=C1C(=O)O[C@@H]2C3O[C@]3(C)CC/C=C(\C)CC[C@@H]12 (some centres undefined)', 'normalized growth', 0.993),
  ('N[C@@H](CC(=O)N1CCn2c(nnc2C(F)(F)F)C1)Cc1cc(F)c(F)cc1F', 'normalized growth', 0.992),
  ('Cc1coc2c1C(=O)C(=O)c1c-2ccc2c1CCCC2(C)C', 'normalized growth', 0.948),
  ('Cc1ccc(C)c(OCCCC(C)(C)C(=O)O)c1', 'normalized growth', 0.987),
  ('C[C@H]1COC2=C1C(=O)C(=O)c1c2ccc2c1CCCC2(C)C', 'normalized growth', 0.9),
  ('CO[C@@]1(NC(=O)CSCC#N)C(=O)N2C(C(=O)O)=C(CSc3nnnn3C)CSC21 (some centres undefined)', 'normalized growth', 0.988),
  ('O=C1C=C2C=C[C@@H]3C[C@@]2(O1)[C@H]1CCCCN31', 'normalized growth', 0.997),
  ('CC(C)NNC(=O)c1ccncc1', 'normalized growth', 1),
  ('CCNC(=O)CC[C@H](N)C(=O)O', 'normalized growth', 0.998),
  ('C=C1C(=O)O[C@@H]2C[C@@]3(C)CCC[C@H](C)C3=C[C@H]12', 'normalized growth', 0.899),
  ('CC1OC1P(=O)(O)O (centres undefined)', 'normalized growth', 0.991),
  ('Cc1c(S(=O)(=O)O)oc2c1C(=O)C(=O)c1c-2ccc2c1CCCC2(C)C', 'normalized growth', 0.959),
  ('COC(=O)C[C@H]1C(C)(C)C(=O)[C@@H]2CC3=C(CC[C@]4(C)C3=CC(=O)O[C@H]4c3ccoc3)[C@@]1(C)C2=O', 'normalized growth', 0.966),
  ('CCOC(=O)c1ccc(O)cc1', 'normalized growth', 1.01),
  ('NC(=O)c1cccc(N)c1', 'normalized growth', 0.988),
  ('O=c1cc[nH]c(=S)[nH]1', 'normalized growth', 1.01),
  ('O=C(O)c1ccccc1-c1c2cc(Br)c(=O)cc-2oc2[c]([Hg])c(O)c(Br)cc12', 'normalized growth', 1.05),
  ('COc1ccc(CCN2CCC(Nc3nc4ccccc4n3Cc3ccc(F)cc3)CC2)cc1', 'normalized growth', 0.985),
  ('C=CC(N)CCC(=O)O (centres undefined)', 'normalized growth', 0.984),
  ('NC(N)=NS(=O)(=O)c1ccc(N)cc1', 'normalized growth', 0.975),
  ('C=CCSCC1Nc2cc(Cl)c(S(N)(=O)=O)cc2S(=O)(=O)N1 (centres undefined)', 'normalized growth', 1),
  ('C#CCCCCCCCCCCCC(O)CC(O)CO (centres undefined)', 'normalized growth', 0.988),
  ('CC1=CC2C(CC1=O)C(C)=CCC2C(C)C (centres undefined)', 'normalized growth', 1.01),
  ('OCCOCCN1CCN(C2=Nc3ccccc3Sc3ccccc32)CC1', 'normalized growth', 1);

* * *

- measurementProtocol: chemical genetic growth profiling, strain panel (AID 1159580);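 note: tested at 20 µM; growth read once vehicle control cultures reached saturation at 30 °C; 1 = growth at the plate median or of vehicle wells; lower values mean less growth of the strain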
- statedConditions: S. cerevisiae deletion strains, growth OD, locus YDR502C, strain sam2, active compounds read low
The campaign covered roughly 5,500 compounds. About 2,000 (36%) were called active. Another 18% or so got no clear call; they are omitted. The list shows a part of the results.
Recorded measurements of normalized growth, one per entry
quantityMeasured: normalized growth

INSERT INTO results (compound, experimentalvalue) VALUES
  ('CC1OC1P(=O)(O)O (centres undefined)', 0.983),
  ('CC(C)[C@@H]1CC[C@@H](C)C[C@H]1O', 1.01),
  ('COc1ccc2c(c1)O[C@H]1c3ccc(OC)cc3OC[C@@H]21', 0.876),
  ('COC(=O)C[C@H]1C(C)(C)C(=O)[C@@H]2CC3=C(CC[C@]4(C)C3=CC(=O)O[C@H]4c3ccoc3)[C@@]1(C)C2=O', 1),
  ('C=CCSCC1Nc2cc(Cl)c(S(N)(=O)=O)cc2S(=O)(=O)N1 (centres undefined)', 1.03),
  ('O=C(O)c1ccccc1-c1c2cc(Br)c(=O)cc-2oc2[c]([Hg])c(O)c(Br)cc12', 0.814),
  ('Cc1c(Cl)cccc1Nc1ccccc1C(=O)O', 0.802),
  ('C=C1C(=O)O[C@@H]2C[C@@]3(C)CCC[C@H](C)C3=C[C@H]12', 0.833),
  ('CC[C@H](C)C(=O)O[C@H]1C[C@@H](C)C=C2C=C[C@H](C)[C@H](CC[C@@H]3C[C@@H](O)CC(=O)O3)[C@H]21', 0.969),
  ('Nc1ccc(N=Nc2ccccc2)c(N)n1', 0.954),
  ('CC1C[C@H]2CC(=O)[C@H]3CCCN4CCC[C@H]2[C@]34C1 (some centres undefined)', 1.01),
  ('C=CCCCCCCCCCCCC(O)CC(O)COC(C)=O (centres undefined) (tested in a mixture with another compound)', 0.912),
  ('CCNC(=O)CC[C@H](N)C(=O)O', 0.999),
  ('COc1c(OC)c2occc2c2oc(=O)ccc12', 0.918),
  ('COc1ccc2c(c1OC)C(=O)OC2[C@H]1c2c(cc3c(c2OC)OCO3)CCN1C (some centres undefined)', 0.984),
  ('Oc1ccc2c(c1)OCC1c3cc4c(cc3OC21)OCO4 (centres undefined)', 0.961),
  ('C#CCCCCCCCCCCCC(=O)CC(O)COC(C)=O (centres undefined)', 0.799),
  ('O=C(Cn1ccnc1[N+](=O)[O-])NCCO', 0.988),
  ('C[C@@H]1C(=O)OC2[C@H](O)C34[C@@H]5OC(=O)[C@@]3(O[C@@H]3OC(=O)[C@H](O)[C@@]34[C@H](C(C)(C)C)[C@H]5O)[C@]21O (some centres undefined)', 1.03),
  ('CC1(C)OC(=O)C=CC2(C)C1CC(O)C1(C)C2CCC2(C)C(c3ccoc3)OC(=O)C3OC321 (centres undefined)', 1.04),
  ('NS(=O)(=O)c1cc2c(cc1Cl)NC(C(Cl)Cl)NS2(=O)=O (centres undefined)', 1.01),
  ('CC(C)C(C)/C=C/C(C)[C@H]1CCC2C3=CCC4CC(=O)CC[C@]4(C)C3CC[C@@]21C (some centres undefined)', 0.999),
  ('COc1cc(-c2coc3cc(OC)c(OC)c(OC)c3c2=O)cc(OC)c1OC', 0.985),
  ('Cc1cccc(C(=O)O)c1O', 1.01),
  ('CC(=O)N[C@@H](CS)C(=O)O', 1.01),
  ('COc1cc(-c2coc3cc(OCc4ccccc4)c(OC)c(O)c3c2=O)cc(OCc2ccccc2)c1OC', 0.991),
  ('COC(=O)C(C)c1ccc(C(=O)c2cccs2)cc1 (centres undefined)', 0.959),
  ('CN1C(C(=O)Nc2ccccn2)=C(O)c2ccccc2S1(=O)=O', 0.957),
  ('CC[C@H](C)C(=O)O[C@H]1CCC=C2C=C[C@H](C)C(CCC3C[C@@H](O)CC(=O)O3)[C@H]21 (some centres undefined)', 1.02),
  ('O=S1OCC2C(CO1)C1(Cl)C(Cl)=C(Cl)C2(Cl)C1(Cl)Cl (centres undefined)', 0.96),
  ('CCCCN1CCCCC1C(=O)Nc1c(C)cccc1C (centres undefined)', 1),
  ('O=C1CC2OCC=C3CN4CC[C@]56c7ccccc7N1C5[C@H]2[C@H]3CC46 (some centres undefined)', 1),
  ('CCCNC1CCc2nc(N)sc2C1 (centres undefined)', 0.995),
  ('CCCC(=O)O[C@]1(C(=O)CO)CCC2[C@@H]3CCC4=CC(=O)CC[C@]4(C)C3[C@@H](O)C[C@@]21C (some centres undefined)', 0.981),
  ('CC(C(=O)O)c1ccc(C(=O)c2cccs2)cc1 (centres undefined)', 1.03),
  ('COc1cc2occ(-c3ccccc3)c(=O)c2c(OC)c1C', 0.919),
  ('CC(=O)OCC(COC(C)=O)OC(C)=O', 1),
  ('Cc1ccc(Cl)c(Nc2ccccc2C(=O)O)c1Cl', 0.835),
  ('CC1(C)O[C@H]2[C@H](O)C[C@](O)(C(N)=O)C[C@H]2O1', 1.03),
  ('OC(Cn1cncn1)(Cn1cncn1)c1ccc(F)cc1F', 0.992),
  ('Cc1cc(NC(=O)C2=C(O)c3ccccc3S(=O)(=O)N2C)no1', 0.98),
  ('CC(C)COCC(CN(Cc1ccccc1)c1ccccc1)N1CCCC1 (centres undefined)', 0.914),
  ('C#CCCCCCCCCCCCC(O)CC(O)COC(C)=O (centres undefined)', 0.923),
  ('Cc1cc(-c2ccccc2)nnc1NCCN1CCOCC1', 1);
